The origin of these recorded values is ChEMBL document CHEMBL5058577.

# Tested on: U2OS
# ASSAY_EXPLANATION: Multiplex assay against U2OS
# Assay type: toxicity, cell-based
# RUN_PARAMETERS: human, 48 h, 10 µM, compound concentration 10 uM, replicate 2
MEASURED_ENDPOINT: Population Hoechst High Intensity Objects (%)
Return type: number; implicit unit %.

COMPOUND | VALUE_UNITS | QUANTITATIVE_READOUT
CC(C)(C)c1ccc(CSc2cnn(C(C)(C)C)c(=O)c2Cl)cc1 | % | 3
O=C(O)CCC/C=C\CC1C(O)CC(O)C1/C=C/C(O)COc1cccc(Cl)c1 (stereo not drawn) | % | 2
Nc1nc(-c2ccco2)c2cnn(Cc3ccccc3F)c2n1 | % | 2
COc1cc(C(=O)N2CC[C@@H](O)[C@@H](N)C2)cc2nc(-c3cc4ccccc4n3CC3CC3)n(C)c12.Cl | % | 6
COc1cc(Nc2ncc3c(n2)-c2ccc(Cl)cc2C(c2c(F)cccc2OC)=NC3)ccc1C(=O)O | % | 5

Reported Population Hoechst High Intensity Objects (%) for CCC(=O)OCC(=O)[C@@]1(OC(=O)CC)[C@@H](C)C[C@H]2[C@@H]3CCC4=CC(=O)C=C[C@]4(C)[C@@]3(Cl)[C@@H](O)C[C@@]21C [BECLOMETHASONE DIPROPIONATE] was 6

Please fill in: Population Hoechst High Intensity Objects (%) reported for COc1cc(OC2CCN(C(C)=O)CC2)ccc1C(=O)N1CCC(N2C(=O)OCc3ccccc32)CC1 = 1

The compound CN1CCN2c3ccccc3Cc3ccccc3C2C1.Cl (stereo not drawn) [MIANSERIN HYDROCHLORIDE] showed Population Hoechst High Intensity Objects (%) equal to 2

----------
# Tested on: U2OS
# ASSAY_EXPLANATION: Multiplex assay against U2OS
# Type: toxicity, cell-based
# RUN_PARAMETERS: human, 24 h, 10 µM, compound concentration 10 uM, replicate 2
MEASURED_ENDPOINT: Population Apoptotic (%)
Could you give me the number in %? Just the number is fine.

SMILES_ENTRY | TEST_TARGET | VALUE_UNITS | Population Apoptotic (%)
O=C(Nc1cc(-c2ccccc2)nn1-c1ccccc1F)c1ccc([N+](=O)[O-])cc1 | U2OS | % | 100

Measured Population Apoptotic (%) (U2OS), entry COC(c1ccccc1)(c1ccccc1)[C@H](Oc1nc(C)cc(C)n1)C(=O)O : 80

Record COc1cc(C(=O)N2CC[C@@H](O)[C@@H](N)C2)cc2nc(-c3cc4ccccc4n3CC3CC3)n(C)c12.Cl has U2OS Population Apoptotic (%) equal to 71

Measured Population Apoptotic (%) (U2OS), entry CSc1nc(NC2CCCC2)c([N+](=O)[O-])c(NC2CCCC2)n1 : 88

----------
# Tested on: HEK-293T
# ASSAY_EXPLANATION: Multiplex assay against HEK293T
# Assay type: toxicity, cell-based
# RUN_PARAMETERS: human, 12 h, 10 µM, compound concentration 10 uM, replicate 1
MEASURED_ENDPOINT: Population Mitochondria Different-Phenotype (%)
// note: answer is a bare numeric in %

COMPOUND | QUANTITATIVE_READOUT
CCn1c(-c2nc3cc(C(=O)N4CCCC(N)C4)ccc3n2C)cc2ccccc21.Cl (stereo not given) | 85
C[C@@H]1CC(=O)Nc2cccc(-c3ccc4c(c3)c(-c3cnn(C)c3)nn4C)c2N1 | 72
COc1cc2nc(N3CCN(C(=O)c4ccco4)CC3)nc(N)c2cc1OC.Cl [PRAZOSIN HYDROCHLORIDE] | 62

Record summary for O=c1ccc2ccc(OCCCCN3CCN(c4cccc5sccc45)CC3)cc2[nH]1 [BREXPIPRAZOLE] : reported Population Mitochondria Different-Phenotype (%) = 97

// Population Mitochondria Different-Phenotype (%) value for CC(F)(F)CN1CCOc2c(nn(-c3ccccc3Cl)c2-c2ccc(Cl)cc2)C1=O : 78
